Target: Integrin alpha-L (Mus musculus)
Sequence (P24063 whole entry): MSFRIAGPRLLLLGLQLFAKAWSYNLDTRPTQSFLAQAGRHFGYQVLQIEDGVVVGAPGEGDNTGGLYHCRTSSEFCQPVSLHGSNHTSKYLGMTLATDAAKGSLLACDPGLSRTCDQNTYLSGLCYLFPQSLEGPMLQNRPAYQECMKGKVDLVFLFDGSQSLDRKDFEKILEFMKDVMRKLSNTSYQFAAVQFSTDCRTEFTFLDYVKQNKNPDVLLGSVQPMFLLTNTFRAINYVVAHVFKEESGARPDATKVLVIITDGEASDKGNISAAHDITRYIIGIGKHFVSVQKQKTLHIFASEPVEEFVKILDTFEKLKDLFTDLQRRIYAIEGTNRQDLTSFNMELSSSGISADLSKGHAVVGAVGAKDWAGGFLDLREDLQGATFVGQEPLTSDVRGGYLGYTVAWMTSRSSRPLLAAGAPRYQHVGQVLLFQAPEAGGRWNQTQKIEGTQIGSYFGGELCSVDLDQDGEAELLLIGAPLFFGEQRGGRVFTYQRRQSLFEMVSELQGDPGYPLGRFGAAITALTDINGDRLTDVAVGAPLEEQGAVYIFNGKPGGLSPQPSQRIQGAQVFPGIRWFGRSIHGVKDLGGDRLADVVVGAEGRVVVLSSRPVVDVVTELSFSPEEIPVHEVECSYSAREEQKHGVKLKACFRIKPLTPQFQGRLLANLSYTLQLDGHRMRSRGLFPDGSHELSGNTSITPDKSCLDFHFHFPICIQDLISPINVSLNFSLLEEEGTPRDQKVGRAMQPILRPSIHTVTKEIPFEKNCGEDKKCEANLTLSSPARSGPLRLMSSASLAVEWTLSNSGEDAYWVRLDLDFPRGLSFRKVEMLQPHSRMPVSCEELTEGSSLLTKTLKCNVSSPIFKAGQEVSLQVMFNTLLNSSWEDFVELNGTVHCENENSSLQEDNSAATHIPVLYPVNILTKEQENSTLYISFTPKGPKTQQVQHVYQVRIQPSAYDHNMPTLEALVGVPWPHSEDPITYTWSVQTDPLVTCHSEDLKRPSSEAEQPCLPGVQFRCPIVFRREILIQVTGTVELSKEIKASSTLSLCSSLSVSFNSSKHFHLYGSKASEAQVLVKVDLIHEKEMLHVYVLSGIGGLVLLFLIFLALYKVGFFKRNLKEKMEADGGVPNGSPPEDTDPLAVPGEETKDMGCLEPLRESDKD
Experiment: modulators of CD8 T cell-vesicle binding, dose response, powder samples, mouse 2C CD8+ cells (AID 504565)
OBSERVED PROPERTY: pEC50
Numbers only, as −log10 of the molar value.

stdin: Entry O=C(c1ccc(-n2c(O)c3c(c2O)CC(Cl)=CC3)cc1)N1CCCCC1 has what pEC50?
stdout: 5.04
